Tested on: HCT-15 colon
experiment_description: NCI tumour cell line growth inhibition, 48 h
readout_name: TGI

These solved cases illustrate the format of a correct answer.
CCCCCCCCCCCCCCCCCc1nccn1CCOCCO : 12.2 µg/mL
COc1cc2c(cc1OC)C1C(=O)c3c(O)cc4c(c3OC1CO2)C=CC(C)(C)O4 (stereo not given) : > 100 µM
O=C(Cc1ccccc1F)NC1=C(Cl)C(=O)c2ccccc2C1=O : 13.3 µM
COC(=O)c1c(C(=O)OC)c2ccccn2c1-c1cc(OC)c(Br)c(=O)o1 : > 100 µM
O=P1(c2ccccc2)c2ccccc2-c2ccccc21 : > 100 µM

Hey, can you go through the list below and give me TGI for every item?
1. CC1(c2sccc2Cl)CC(c2sccc2Cl)=C(C#N)C(=C(C#N)C#N)N1 (stereo not given)
2. CSC1NC(c2ccccc2)=C(C#N)C(=O)N1C1OCC(OC(C)=O)C(OC(C)=O)C1OC(C)=O (stereo not given)
3. CC(=O)c1[nH]c(NC(C)C)c(C(=S)Nc2ccccc2)c1N
4. CC1=C2CC(C)(C)/C=C\C(=O)/C(C)=C\C3=C[C@H](C)C[C@]3(O2)C1=O
5. CCNC(=O)c1cc(Cl)ccc1NC(=O)C12CC3CC(CC(C3)C1)C2

OUTPUT:
1. 35 µM
2. > 100 µM
3. > 100 µM
4. 2.53 µM
5. > 100 µM
